experimental.system: hPDE IVB (Homo sapiens)
Sequence (Q07343 1-564 isoform Q07343-2): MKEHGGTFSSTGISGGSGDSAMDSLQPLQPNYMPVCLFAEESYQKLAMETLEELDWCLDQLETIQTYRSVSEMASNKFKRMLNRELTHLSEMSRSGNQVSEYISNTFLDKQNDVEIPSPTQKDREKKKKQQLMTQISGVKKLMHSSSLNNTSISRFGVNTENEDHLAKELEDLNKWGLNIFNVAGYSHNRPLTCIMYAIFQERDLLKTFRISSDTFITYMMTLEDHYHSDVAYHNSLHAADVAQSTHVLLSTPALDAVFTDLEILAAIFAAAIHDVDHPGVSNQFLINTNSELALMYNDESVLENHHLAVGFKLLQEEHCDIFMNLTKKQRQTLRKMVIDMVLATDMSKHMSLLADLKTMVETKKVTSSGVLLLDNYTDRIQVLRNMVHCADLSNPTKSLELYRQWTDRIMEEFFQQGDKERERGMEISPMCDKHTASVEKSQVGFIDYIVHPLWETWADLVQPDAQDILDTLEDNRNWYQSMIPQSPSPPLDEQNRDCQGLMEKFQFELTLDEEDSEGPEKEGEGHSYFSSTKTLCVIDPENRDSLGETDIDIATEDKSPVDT
run.description: PDE assay: cAMP hydrolysis by recombinant hPDE IVB in yeast lysate supernatant

| compound | IC50 |
| --- | --- |
| CN/C(=N\c1ccc(C2=NNC(=O)CC2C)cc1)NC#N (stereo not shown) | > 30 µM |
